- System: RAW264.7
- procedureSummary: Antiproliferative activity against mouse RAW 264.7 preosteoclast cells assessed as reduction in cell viability incubated for 72 hrs by MTS viability assay
- Assay type: functional, cell-based
- conditions: RAW264.7, 72 h
observedProperty: pIC50
One number for each entry, as −log10 of the molar value.

Ask: Reported pIC50, compound O[C@]12C=C(c3nccc4c3[nH]c3ccccc34)[C@@H]3CCN(CCCC/C=C\CC1)C[C@@]31C[C@@H]3/C=C\CCCCN3[C@H]12 [MANZAMINE A] : ____
Result: 5.72

---

- Test system: RAW264.7
- procedureSummary: Antiproliferative activity against mouse differentiated RAW 264.7 osteoclast cells assessed as reduction in cell viability incubated for 24 hrs by MTS viability assay
- Type: functional, cell-based
- conditions: RAW264.7, 24 h
observedProperty: IC50
Reply with the number and its unit after it.

Ask: Given the entry `O[C@]12C=C(c3nccc4c3[nH]c3ccccc34)[C@@H]3CCN(CCCC/C=C\CC1)C[C@@]31C[C@@H]3/C=C\CCCCN3[C@H]12` , what IC50 was observed with RAW264.7?
Result: 1600 nM

Sourced from ChEMBL document CHEMBL5344443
